Values from patent US20120077731A1

# system tested: T1, Human membrane IL-6R on cells (human, UniProt P08887 20-468)
# T1 sequence (looked up): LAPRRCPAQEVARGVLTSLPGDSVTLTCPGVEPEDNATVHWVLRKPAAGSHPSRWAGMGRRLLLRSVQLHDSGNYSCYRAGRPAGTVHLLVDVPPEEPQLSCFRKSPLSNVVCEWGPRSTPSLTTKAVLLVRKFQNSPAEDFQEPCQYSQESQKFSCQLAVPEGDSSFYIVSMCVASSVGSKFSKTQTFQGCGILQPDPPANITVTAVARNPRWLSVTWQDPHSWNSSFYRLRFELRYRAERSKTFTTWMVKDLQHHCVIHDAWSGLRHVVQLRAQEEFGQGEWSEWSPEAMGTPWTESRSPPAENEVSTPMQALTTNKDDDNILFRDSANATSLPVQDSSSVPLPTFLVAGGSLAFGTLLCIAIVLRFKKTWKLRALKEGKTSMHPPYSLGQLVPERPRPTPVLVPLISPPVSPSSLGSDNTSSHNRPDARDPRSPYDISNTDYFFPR
# protocol: cell-based or functional assay
Reported IC50 values (nM), XG-1 assay values for the following binders.
endpoint: IC50 values (nM), XG-1 assay

binder="IL6R04 (VHH, also called PMP32C9; not shown: C-terminal c-myc and (His)6 tags) VHH: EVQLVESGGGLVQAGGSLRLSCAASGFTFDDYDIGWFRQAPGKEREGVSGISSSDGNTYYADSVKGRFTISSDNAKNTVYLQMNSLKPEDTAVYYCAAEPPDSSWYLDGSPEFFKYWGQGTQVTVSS" endpoint="IC50 values (nM), XG-1 assay" test_result="0.1 nM"
binder="IL6R75 (VHH, also called ILR7.5; not shown: tag (IL6R201 is called the tagless version of IL6R75)) VHH: EVQLVESGGGLVQPGGSLRLSCAASGFTFSDYDIGWFRQAPGKGREGVSGISSSDGNTYYADSVKGRFTISRDNAKNTLYLQMNSLRPEDTAVYYCAAEPPDSSWYLDGSPEFFKYWGQGTLVTVSS" endpoint="IC50 values (nM), XG-1 assay" test_result="0.04 nM"
binder="IL6R88 (VHH, tested as periplasmic extract and purified) VHH: EVQLVESGGGLVQPGGSLRLSCAASGFTFDDYGMSWVRQAPGKGTEWVSAISWNGNNTYYTESMKGRFTISRDNAKNTLYLQMNSLRPEDTAVYYCVKGSTAIVGVPPTYPDEYDYWGQGTLVTVSS" endpoint="IC50 values (nM), XG-1 assay" test_result="3.3 nM"
binder="IL6R03 (VHH, also called PMP31A4; not shown: C-terminal c-myc and (His)6 tags) VHH: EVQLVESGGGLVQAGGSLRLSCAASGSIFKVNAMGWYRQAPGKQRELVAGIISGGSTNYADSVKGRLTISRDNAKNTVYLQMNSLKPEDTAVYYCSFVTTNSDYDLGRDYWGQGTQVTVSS" endpoint="IC50 values (nM), XG-1 assay" test_result="17 nM"
binder="IL6R13 (VHH, also called PMP35H4; not shown: C-terminal c-myc and (His)6 tags) VHH: EVQLVESGGGLVQPGGSLRLSCAASGFTFDDYGMSWVRQAPGRATEWVSAISWNGNNTYYTESMKGRFTISRDNAKNTVYLQMNSLKPEDTAVYYCVKGSTAIVGVPPTYPDEYDYWGQGTQVTVSS" endpoint="IC50 values (nM), XG-1 assay" test_result="1.4 nM"
binder="IL6R65 (VHH, also called ILR65; parent Nanobody) VHH: EVQLVESGGGLVQPGGSLRLSCAASGSIFKVNAMGWYRQAPGKGRELVAGIISGGSTNYADSVKGRFTISRDNAKNTLYLQMNSLRPEDTAVYYCAFVTTNSDYDLGRDYWGQGTLVTVSS" endpoint="IC50 values (nM), XG-1 assay" test_result="26 nM"
